This collection of values is drawn from patent US8735623B2.

Listed here are compounds together with their documented Stability in gastric secretion.
procedure summary: Stability in artificial gastric secretion (HPLC)
experimental setup: 3 hours, 37° C.
Write your answer as a measured quantity: the number, then the unit.

Use these answered entries as a reference point.
compound: CC(=O)O.CCOC(=O)CCCNC(=O)CN(C)C(=N)N
measurement name: Stability in gastric secretion
readout value: 99%
--
compound: CCNC(=O)C(Cc1ccccc1)NC(=O)CN(C)C(=N)N.Cl (stereo not drawn)
measurement name: Stability in gastric secretion
readout value: 98%
--
compound: CC(=O)O.CCOC(=O)CNC(=O)CNC(=O)CN(C)C(=N)N
measurement name: Stability in gastric secretion
readout value: 98%
--
compound: CC(=O)O.CC(C)OC(=O)CNC(=O)CN(C)C(=N)N
measurement name: Stability in gastric secretion
readout value: 99%
--
compound: CC(=O)O.CC(=O)O.CCOC(=O)[C@@H](N)CCCCNC(=O)CN(C)C(=N)N
measurement name: Stability in gastric secretion
readout value: 98%

Kindly review the next compound as well.
Query: For the compound CCNC(=O)CNC(=O)CN(C)C(=N)N.O=C(O)C(O)C(O)C(=O)O [Agent 3, Creatinyl-Glycine Ethylamide Tartrate] , give its reported Stability in gastric secretion.
Result: 97%

====

procedure summary: Stability in artificial gastric secretion (HPLC)
experimental setup: 5 hours, 37° C.
measurement name: Stability in gastric secretion (%)
Only the number, expressed in %, is required.

Query: For the compound CC(=O)O.CCOC(=O)CNC(=O)CNC(=O)CN(C)C(=N)N [Agent 2] , give its reported Stability in gastric secretion.
Result: 98

Query: For the compound CCNC(=O)CNC(=O)CN(C)C(=N)N.O=C(O)C(O)C(O)C(=O)O [Agent 3, Creatinyl-Glycine Ethylamide Tartrate] , give its reported Stability in gastric secretion.
Result: 98

Query: For the compound CC(=O)O.CC(=O)O.CCOC(=O)[C@@H](N)CCCCNC(=O)CN(C)C(=N)N [Agent 4] , give its reported Stability in gastric secretion.
Result: 97

Query: For the compound CCNC(=O)C(Cc1ccccc1)NC(=O)CN(C)C(=N)N.Cl (stereo not drawn) [Agent 5] , give its reported Stability in gastric secretion.
Result: 99

Query: For the compound CC(=O)O.CCOC(=O)CCCNC(=O)CN(C)C(=N)N [Agent 6] , give its reported Stability in gastric secretion.
Result: 99

Query: For the compound CC(=O)O.CC(C)OC(=O)CNC(=O)CN(C)C(=N)N [Agent 1] , give its reported Stability in gastric secretion.
Result: 97

====

procedure summary: Stability in artificial gastric secretion (HPLC)
experimental setup: 1 hour, 37° C.
measurement name: Stability in gastric secretion (%)
Only the number, expressed in %, is required.

Use these answered entries as a reference point.
compound: CC(=O)O.CC(=O)O.CCOC(=O)[C@@H](N)CCCCNC(=O)CN(C)C(=N)N [Agent 4]
Stability in gastric secretion / %: 100

compound: CC(=O)O.CCOC(=O)CCCNC(=O)CN(C)C(=N)N [Agent 6]
Stability in gastric secretion / %: 100

compound: CC(=O)O.CCOC(=O)CNC(=O)CNC(=O)CN(C)C(=N)N [Agent 2]
Stability in gastric secretion / %: 100

compound: CCNC(=O)C(Cc1ccccc1)NC(=O)CN(C)C(=N)N.Cl (stereo not drawn) [Agent 5]
Stability in gastric secretion / %: 100

compound: CCNC(=O)CNC(=O)CN(C)C(=N)N.O=C(O)C(O)C(O)C(=O)O [Agent 3, Creatinyl-Glycine Ethylamide Tartrate]
Stability in gastric secretion / %: 100

Kindly review the next compound as well.
Query: For the compound CC(=O)O.CC(C)OC(=O)CNC(=O)CN(C)C(=N)N [Agent 1] , give its reported Stability in gastric secretion.
Result: 100
